Hey, just so you know, these numbers are from paper PMC3329556.

Substrate: NC(=O)c1ccc[n+]([C@@H]2O[C@H](COP(=O)(O)OP(=O)(O)OC[C@H]3O[C@@H](n4cnc5c(N)ncnc54)[C@H](O)[C@@H]3O)[C@@H](O)[C@H]2O)c1
experimentalDetails: radiometric HPLC assay, initial rates, Michaelis-Menten fit
Format: biochemical, Bos taurus
assayContext: 10 mM potassium phosphate pH 7.4, 37°C, 14C-labelled NAD+ tracer
Each record here notes measured kcat.

protein: bCD38 (bovine CD38/NAD+glycohydrolase) (Bos taurus; S185A) (protein, soluble ecto-domain residues 32-278 (first 31 residues removed), alpha-factor secretion signal, Pichia pastoris GS115 or X33, mono-N-glycosylated at Asn201, back-to-back homodimer in crystal) YKWHYSGLNRWHGAGSTADFQKIIQERCDTYTQTIRPGSRSRNCQAIRQAFMSAFISKDPCKATKEDYNSLINLAPPTVPCGQQVFWSKTKELAHEYAKRRRLMTLEDTLLGYLADGLRWCGEPGSSDLNIWSCPDWRKDCRTNYLSVFWEVLAERFAESACNTVRVVLNGSLENAFDSMSIFGRVEAPNLRPQVELEAWLVHDTGKPPSDSCSGSSIRKLKSILDGRNVKFRCMDNLSRDQFLQRS
kcat: 38.2 s⁻¹

protein: bCD38 (bovine CD38/NAD+glycohydrolase) (Bos taurus; R216A) (protein, soluble ecto-domain residues 32-278 (first 31 residues removed), alpha-factor secretion signal, Pichia pastoris GS115 or X33, mono-N-glycosylated at Asn201, back-to-back homodimer in crystal) YKWHYSGLNRWHGAGSTADFQKIIQERCDTYTQTIRPGSRSRNCQAIRQAFMSAFISKDPCKATKEDYNSLINLAPPTVPCGQQVFWSKTKELAHEYAKRRRLMTLEDTLLGYLADGLRWCGEPGSSDLNIWSCPDWRKDCRTNYLSVFWEVLSERFAESACNTVRVVLNGSLENAFDSMSIFGAVEAPNLRPQVELEAWLVHDTGKPPSDSCSGSSIRKLKSILDGRNVKFRCMDNLSRDQFLQRS
kcat: 25.4 s⁻¹
